These data points were gathered from PubChem BioAssay (NCATS).

# Tested on: OV90
# Assay Comment: Primary qHTS to identify gynecologic anti-cancer compounds using libraries of approved drugs and bioactive compounds (AID 1345084); also: % is scaled to controls: 0 for no effect and ±100 for the full control effect; nearly all actives have a fitted effect of over 55% in size
# Condition Notes: Gynecologic cancer cell panel viability, ATPlite luminescence, 48 h; series mostly up to 57.5 µM
Results filed as inconclusive are left out. Calls of active or inactive are those of the source. Calls follow the shape of the dose curve; as a rule, active = well fitted cell-killing curve with a large enough effect; inconclusive = small, poorly fitted or top-dose-only effect, or effect the other way; inactive = flat fitted curve, though single readings scatter.
Measurement Name: activity change, negative = cytotoxicity

COc1ccc(/C=C/C(=O)O[C@@H]2[C@@H](O)[C@H](C)O[C@@H](OC3C4C=COC(O[C@@H]5O[C@H](CO)[C@@H](O)[C@H](O)[C@H]5O)C4C4(CO)OC34)[C@@H]2O)cc1OC (some centres undefined) = inactive
OCC1OC(Oc2cc(O)c3c(c2)OC(c2ccc(O)cc2)C(O)C3)C(O)C1O (centres undefined) = inactive
O=C(CCO[C@@H]1O[C@H](CO)[C@@H](O)[C@H](O)[C@H]1O)c1ccc(O)cc1 = inactive
C#Cc1cnc2[nH]c(=O)n(C(CC)CC)c2n1 = inactive

----------
# Tested on: FAB9
# Assay Comment: qHTS profiling for inhibitors of Plasmodium falciparum proliferation (AID 504749); also: nearly all actives have a fitted effect of over 60% in size; also: potency is read from the fitted curve at half-maximal effect
# Condition Notes: P. falciparum in erythrocytes, SYBR Green DNA, 72 h; series mostly up to 28.7 µM
Records with an inconclusive call do not appear. Calls of active or inactive are those of the source. Calls come from the whole dose curve; as a rule, active = well fitted inhibition curve with a large enough effect; inconclusive = small, poorly fitted or top-dose-only effect; inactive = flat fitted curve, though single readings scatter.
Measurement Name: Potency

Examples from the recorded data:
Nc1c(Br)cc(Br)cc1CNC1CCC(O)CC1 (stereo not given) = inactive
CN1C(=O)CN2CCc3ccccc3C2c2cc(Cl)ccc21 (stereo not given) = inactive
COC(C(=O)C(O)C(C)O)C1Cc2cc3cc(OC4CC(OC5CC(O)C(O)C(C)O5)C(O)C(C)O4)c(C)c(O)c3c(O)c2C(=O)C1OC1CC(OC2CC(OC3CC(C)(O)C(O)C(C)O3)C(O)C(C)O2)C(O)C(C)O1 (stereo not given) = 1.58 µM (active)
CCOC(=O)C1=C(C)NC(C)=C(C(=O)OCC)C1c1ccccc1C=CC(=O)OC(C)(C)C = 11.2 µM (active)
CC[N+](C)(C)Cc1ccccc1Br = inactive
CO[C@H](C(=O)[C@@H](O)[C@@H](C)O)C1Cc2cc3cc(O[C@H]4C[C@@H](O[C@H]5C[C@@H](O)[C@H](O)[C@@H](C)O5)[C@@H](O)[C@@H](C)O4)c(C)c(O)c3c(O)c2C(=O)[C@H]1O[C@H]1C[C@@H](O[C@H]2C[C@@H](O[C@H]3C[C@](C)(O)[C@H](O)[C@@H](C)O3)[C@H](O)[C@@H](C)O2)[C@H](O)[C@@H](C)O1 (stereo not given in full) = 0.562 µM (active)
CCOC(C)=O = inactive
COC(F)(F)C(Cl)Cl = inactive

Documented Potency of O=C(Nc1ccc(Br)cc1)c1cc(Br)c(Br)s1 : inactive

// sample Nc1c(N=Nc2ccc(-c3ccc(N=Nc4cc(S(=O)(=O)O)c5ccccc5c4N)cc3)cc2)cc(S(=O)(=O)O)c2ccccc12 , its Potency was inactive

The molecule identified as CCCC(=O)Nc1ncnc2c1ncn2C1OC2COP(=O)(O)OC2C1OC(=O)CCC (stereo not given) registered its Potency at inactive

The molecule listed as CC(O)CO (stereo not given) has a reported Potency of inactive

Lookup result for CN=C(NC#N)Nc1ccc(C2=NNC(=O)C[C@@H]2C)cc1 ; measured Potency: inactive

Entry CC1(C)C(C=C(Cl)Cl)C1C(=O)OCc1cccc(Oc2ccccc2)c1 (stereo not given) , Potency reported as inactive

Field Potency (entry CCNC(=O)[C@@H]1CCCN1C(=O)[C@H](CCCN=C(N)N)NC(=O)[C@H](CC(C)C)NC(=O)[C@@H](Cc1c[nH]c2ccccc12)NC(=O)[C@H](Cc1ccc(O)cc1)NC(=O)[C@H](CO)NC(=O)[C@H](Cc1c[nH]c2ccccc12)NC(=O)[C@H](Cc1cnc[nH]1)NC(=O)[C@@H]1CCC(=O)N1 ) reads 8.91 µM (active)

Measured Potency, Cc1c(C)c2c(c(C)c1O)CC[C@@](C)(CCC[C@@H](C)CCC[C@@H](C)CCCC(C)C)O2 : inactive

# Potency (molecule: Cc1ccccc1 ) is inactive

Per the record, COC(=O)[C@H]1[C@H]2C[C@@H]3c4[nH]c5ccccc5c4CCN3C[C@H]2C[C@@H](OC(=O)c2cc(OC)c(OC)c(OC)c2)[C@@H]1OC has Potency of 1.26 µM (active)

Looking up CCC(=O)NCCC1CCc2ccc3c(c21)CCO3 (stereo not given) , I see its Potency listed as inactive

The molecule listed as C[C@H]1C[C@H]2[C@@H]3CCC4=CC(=O)C=C[C@]4(C)[C@@]3(F)[C@@H](O)C[C@]2(C)[C@@]1(O)C(=O)CO shows Potency equal to inactive

Entry under test: O=S(=O)(O)O . Its Potency was inactive

The molecule identified as COCC(=O)Nc1cc(Sc2ccccc2)ccc1N=C(NC(=O)OC)NC(=O)OC registered its Potency at inactive

For record C#CCOc1ccc2c(C)cc(=O)oc2c1 the listed Potency is inactive

What the record says about CCCCC(=O)O[C@]1(C(=O)CO)[C@H](C)C[C@H]2[C@@H]3CCC4=CC(=O)C=C[C@]4(C)[C@@]3(F)[C@@H](O)C[C@@]21C : Potency is inactive

Input CCCCC(C)(O)C/C=C/[C@H]1[C@H](O)CC(=O)[C@@H]1CCCCCCC(=O)OC (stereo not given in full) . Output Potency: inactive

Field Potency (entry CCOc1ccc(N=Nc2ccc(N)cc2N)cc1 ) reads inactive

Entry under test: CCCCCCCC(=O)O . Its Potency was inactive

Value of Potency reported for the molecule CC1=C(/C=C/C(C)=C/C=C/C(C)=C/C=C/C=C(C)/C=C/C=C(C)/C=C/C2=C(C)C(=O)CCC2(C)C)C(C)(C)CCC1=O is inactive

Item: CC(C)N=c1cc2n(-c3ccc(Cl)cc3)c3ccccc3nc-2cc1Nc1ccc(Cl)cc1 | Potency: inactive

Per the record, CCCCCCCCCCCCCC[n+]1ccc(C)cc1 has Potency of 12.6 µM (active)

Briefly, Potency measured for CC(C)=O : inactive

----------
# Tested on: CAOV3
# Assay Comment: Primary qHTS to identify gynecologic anti-cancer compounds using libraries of approved drugs and bioactive compounds (AID 1345084); also: % is scaled to controls: 0 for no effect and ±100 for the full control effect; nearly all actives have a fitted effect of over 55% in size
# Condition Notes: Gynecologic cancer cell panel viability, ATPlite luminescence, 48 h; series mostly up to 57.5 µM
Records with an inconclusive call do not appear. Activity calls are given as the source filed them. The call rests on the fitted dose curve; in most records, active means well fitted cell-killing curve with a large enough effect; inconclusive means small, poorly fitted or top-dose-only effect, or effect the other way; inactive means flat fitted curve, though single readings scatter.
Measurement Name: activity change, negative = cytotoxicity

CC(=O)OC[C@@]12[C@H](O)C[C@]3(C)C(=CCC4[C@@]5(C)CC[C@H](O[C@@H]6O[C@H](C(=O)O)[C@@H](O[C@@H]7O[C@H](CO)[C@@H](O)[C@H](O)[C@H]7O)[C@H](O)[C@H]6O[C@@H]6O[C@H](CO)[C@@H](O)[C@H](O)[C@H]6O)[C@](C)(CO)C5CC[C@]43C)[C@@H]1CC(C)(C)[C@@H](OC(C)=O)[C@@H]2O (some centres not stated) = 8.05% [at 11.6 µM] (inactive)
CC(C)N(C[C@H]1O[C@@H](n2cnc3c(N)ncnc32)[C@H](O)[C@@H]1O)C1CC(CCc2nc3ccc(C(C)(C)C)cc3[nH]2)C1 (some centres not stated) = inactive
COc1cccc(-c2ccc([C@@H](Oc3cc(-c4ccc(C[C@H](N)C(=O)O)cc4)nc(N)n3)C(F)(F)F)cc2)c1 = inactive
C[C@H]1[C@H](C)CC[C@]2(C(=O)O)CC[C@]3(C(=O)O)C(=CCC4[C@@]5(C)CC[C@H](O[C@@H]6O[C@H](C)[C@@H](O)[C@H](O)[C@H]6O)C(C)(C)C5CC[C@]43C)[C@H]12 (some centres not stated) = inactive
OC[C@H]1O[C@@H](OCCc2ccc(O)cc2)[C@H](O)[C@@H](O)[C@@H]1O = inactive

// activity change, negative = cytotoxicity value for C[C@@H]1O[C@@H](O[C@H]2[C@H](O[C@H]3CO[C@@H](O[C@H]4CC[C@@]5(C)C(CC[C@]6(C)C5CC[C@]57OC[C@@]8(CC[C@](C)(CO)CC85)[C@H](O)C[C@]76C)C4(C)C)[C@H](O[C@@H]4O[C@H](CO)[C@@H](O)[C@H](O)[C@H]4O)[C@H]3O)O[C@H](CO)[C@@H](O)[C@@H]2O)[C@H](O)[C@H](O)[C@H]1O (some centres not stated) : -8.26% [at 11.6 µM] (inactive)

Data point: O=C(O)Cc1nn(Cc2nc3cc(C(F)(F)F)ccc3s2)c(=O)c2nccnc12 ; activity change, negative = cytotoxicity = inactive

Sample CC12CCC3c4ccc(O)cc4CCC3C1CCC2OC1OC(C(=O)O)C(O)C(O)C1O (configuration not stated) ; activity change, negative = cytotoxicity observed: inactive

Value of activity change, negative = cytotoxicity reported for the compound O=C1NCc2nc3ccccc3c(=O)n2C1Cc1c[nH]c2ccccc12 (configuration not stated) is inactive

Noted for C=CC(C)(C)C1(CC2NC(=O)C3CCCN3C2=O)C(=O)Nc2cc3c(cc21)C=CC(C)(C)O3 (configuration not stated) : its activity change, negative = cytotoxicity reads inactive
